# study target: recombinant MERS-CoV S1 protein (MERS-CoV)
# assay overview: SPR
readout: koff (s⁻¹)

INSERT INTO results (binder, readout, value_reported) VALUES
  ('IgG1 m336 (antibody, V domains shown) VH: QVQLVQSGAEVKKPGSSVKVSCKASGGTFSSYAISWVRQAPGQGLEWMGGIIPIFGTASYAQKFQGRVTITADKSTSTAYMELSSLRSEDTAVYYCARVGYCSSTSCNRGAFDIWGQGTMVTVSS VL: DIQLTQSPSSLSASVGDRVTITCRASQGIRNDLGWYQQKPGKAPKLLIYAASSLQSGVPSRFSGSGSGTDFTLTISSLQPEDFATYYCQQLNSYPLTFGGGTKVEIK', 'koff', 0.000955),
  ('IgG1 m336-gH (heavy-chain somatic mutation reverted to germline) (antibody, V domains shown) VH: QVQLVQSGAEVKKPGSSVKVSCKASGGTFSSYAISWVRQAPGQGLEWMGGIIPIFGTANYAQKFQGRVTITADKSTSTAYMELSSLRSEDTAVYYCARVGYCSSTSCNRGAFDIWGQGTMVTVSS VL: DIQLTQSPSSLSASVGDRVTITCRASQGIRNDLGWYQQKPGKAPKLLIYAASSLQSGVPSRFSGSGSGTDFTLTISSLQPEDFATYYCQQLNSYPLTFGGGTKVEIK', 'koff', 0.000329),
  ('IgG1 m336-gL-FR (light-chain framework somatic mutations reverted to germline) (antibody, V domains shown) VH: QVQLVQSGAEVKKPGSSVKVSCKASGGTFSSYAISWVRQAPGQGLEWMGGIIPIFGTASYAQKFQGRVTITADKSTSTAYMELSSLRSEDTAVYYCARVGYCSSTSCNRGAFDIWGQGTMVTVSS VL: DIQMTQSPSSLSASVGDRVTITCRASQGIRNDLGWYQQKPGKAPKRLIYAASSLQSGVPSRFSGSGSGTEFTLTISSLQPEDFATYYCQQLNSYPLTFGGGTKVEIK', 'koff', 0.000769),
  ('IgG1 m336-gL (all light-chain somatic mutations reverted to germline) (antibody, V domains shown) VH: QVQLVQSGAEVKKPGSSVKVSCKASGGTFSSYAISWVRQAPGQGLEWMGGIIPIFGTASYAQKFQGRVTITADKSTSTAYMELSSLRSEDTAVYYCARVGYCSSTSCNRGAFDIWGQGTMVTVSS VL: DIQMTQSPSSLSASVGDRVTITCRASQGIRNDLGWYQQKPGKAPKRLIYAASSLQSGVPSRFSGSGSGTEFTLTISSLQPEDFATYYCLQHNSYPLTFGGGTKVEIK', 'koff', 0.000545);
